Molecular target: T1, human galectin-10-His (recombinant human galectin-10 with TEV-cleavable N-terminal His-tag) (human)
T1 construct: SEC-MALLS: dimer in solution; also called Gal10-His; humanGal10-His
T1 chain: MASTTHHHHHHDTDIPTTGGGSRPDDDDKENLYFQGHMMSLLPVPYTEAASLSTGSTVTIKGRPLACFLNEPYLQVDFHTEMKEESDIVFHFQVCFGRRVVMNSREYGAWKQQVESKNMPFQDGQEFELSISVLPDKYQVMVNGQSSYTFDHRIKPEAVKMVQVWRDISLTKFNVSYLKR
Test: SPR Biacore T3000, mouse IgG1 captured by anti-mouse Fc, galectin-10-His as analyte
pKd: −log10 of the molar value.

>  <binder>
1C09 mouse IgG1 (antibody, V domains shown, VH on mouse IgG1 heavy chain constant domains (CH1-CH2-CH3), VL on mouse lambda light chain constant domain; also called 1C09 mIgG1) VH: QVQLVESGPGLVKPSQTLSLTCTVSGGSITTNSYYWSWIRQPPGKGLEWMGAIAYSGSTYYSPSLKSRTSISRDTSKNQFTLHLSSVTPEDTAVYYCARRPNWYRALDAWGQGTLVTVSS VL: NFMLTQPSAVSVSLGQTARITCQGANLGRYYGIWYQQKPGQAPVQVIYGDSNRPSGIPERFSGSSSGGTATLTISGAQAEDEADYYCQSYESSTSPVFGGGTHLTVL

>  <pKd>
9.30

$$$$
>  <binder>
6B06 mouse IgG1 (antibody, V domains shown, also called 6B06 mIgG1) VH: QVQRQESGPGLVKPSQTLSLTCTVSGGSITTNYYSWSWIRQPPGKGLEWIGYIAYSGSTSYSPSLKSRTSISRDTSNNQFSLQLSSVTPEDTAVYYCARSRSSPTTFGMDYWGKGTLVTVSS VL: SSALTQPSAVSVSLGQTARITCQGGNFGRYYVSWYTQKPGQAPVLVIYQDSERPTGIPERFSGSSSGDTATLTISGAQAEDEADYYCQSGTSSDNIVFGGGTHLTVL

>  <pKd>
9.52

$$$$
>  <binder>
6E10 mouse IgG1 (antibody, V domains shown, also called 6E010; 6E10 mIgG1) VH: QLQLVESGGGLVQPGGSLRLSCAASGFTFSSYWMYWVRQAPGKGLEWVSAINTGGGSTYYADSVKGRFTISRDNAKNTLYLQMNSLKPEDTALYYCARAGSGVAGTGYDYWGQGTQVTVSS VL: QPVLNQPSAVSVSLGQTARITCQGGNFGYYYVSWYQQKPGQAPVLVIYRDSGRPSGIPERFSGSSSGDTATLTISGAQAEDEADYYCQSGSSSDNAVFGGGTHLTVL

>  <pKd>
9.30

$$$$
